# System: DU-145
# assay-summary: Inhibition of cells growth by colorimetric assay (SRB), DU-145
# Format: cell-based
# condition-label: Homo sapiens, DU-145, 48 h, read-out: DU-145 LC50, DU-145; SRB, 48 hours exposure
Readings of CC50 for the listed compounds
A number alone suffices; assume nM.

Past entries and their recorded results:
# compound, CC50 [nM]
records = [
    ("COc1cc2c(cc1O)CCN[C@]21CS[C@@H]2c3c(OC(C)=O)c(C)c4c(c3[C@H](COC1=O)N1C2[C@H]2c3c(cc(C)c(OC)c3OC(=O)OC(C)(C)C)C[C@@H]([C@@H]1O)N2C)OCO4 (stereo partly shown) [Compound 97]", 0.928),
    ("COc1cc2c(cc1O)CCN[C@]21CS[C@@H]2c3c(OC(C)=O)c(C)c4c(c3[C@H](COC1=O)N1C2[C@H]2c3c(cc(C)c(OC)c3OC(C)C)C[C@@H]([C@@H]1O)N2C)OCO4 (stereo partly shown) [Compound 102]", 124),
    ("COc1cc2c(cc1OC(=O)Cc1cc(=O)oc3cc(N(C)C)ccc13)CCN[C@]21CS[C@@H]2c3c(OC(C)=O)c(C)c4c(c3[C@H](COC1=O)N1C2[C@H]2c3c(cc(C)c(OC)c3OC(=O)Cc3cc(=O)oc5cc(N(C)C)ccc35)C[C@@H]([C@@H]1O)N2C)OCO4 (stereo partly shown) [Compound 77]", 10100),
]

Now look at this one.
GET /values?readout=CC50&item= C=COC(=O)N1CCc2cc(O)c(OC)cc2[C@@]12CS[C@@H]1c3c(OC(C)=O)c(C)c4c(c3[C@H](COC2=O)N2C1[C@H]1c3c(cc(C)c(OC)c3O)C[C@@H]([C@@H]2O)N1C)OCO4 (stereo partly shown) [Compound 95]
1010

* * *

# Test system: IGROV-1
# assay-summary: Inhibition of cells growth by colorimetric assay (SRB), IGROV-1
# Type: cell-based
# condition-label: read-out: IGROV LC50; IGROV; SRB, 48 hours exposure
Readings of CC50 for the listed molecules
A number alone suffices; assume nM.

# molecule, numeric-readout
records = [
    ("COc1cc2c(cc1OC(=O)Cc1cc(=O)oc3cc(N(C)C)ccc13)CCN[C@]21CS[C@@H]2c3c(OC(C)=O)c(C)c4c(c3[C@H](COC1=O)N1C2[C@H]2c3c(cc(C)c(OC)c3OC(=O)Cc3cc(=O)oc5cc(N(C)C)ccc35)C[C@@H]([C@@H]1O)N2C)OCO4 (some centres unmarked) [Compound 78]", 53.9),
]

Lookup: CC50 / IGROV-1 / COc1cc2c(cc1OC(=O)Cc1cc(=O)oc3cc(N(C)C)ccc13)CCN[C@]21CS[C@@H]2c3c(OC(C)=O)c(C)c4c(c3[C@H](COC1=O)N1C2[C@H]2c3c(cc(C)c(OC)c3OC(=O)Cc3cc(=O)oc5cc(N(C)C)ccc35)C[C@@H]([C@@H]1O)N2C)OCO4 (some centres unmarked) [Compound 77]
8.82

* * *

# Tested on: LNCaP
# assay-summary: Inhibition of cells growth by colorimetric assay (SRB), LNCaP
# Format: cell-based
# condition-label: SRB assay, 48 hours exposure
readout-name: LNCAP TGI
Number only, no unit.

Past entries and their recorded results:
# compound, readout-name, numeric-readout
rows = [
    ("COc1cc2c(cc1O)CCN[C@]21CS[C@@H]2c3c(OC(=O)CCCCC4SCC5NC(=O)NC54)c(C)c4c(c3[C@H](COC1=O)N1C2[C@H]2c3c(cc(C)c(OC)c3O)C[C@@H]([C@@H]1O)N2C)OCO4 (stereo partly drawn) [Compound 171]", "LNCAP TGI", "3.14E-09"),
    ("COc1cc2c(cc1OC(=O)OC(C)(C)C)CCN[C@]21CS[C@@H]2c3c(OC(=O)[C@H](C)NC(=O)OC(C)(C)C)c(C)c4c(c3[C@H](COC1=O)N1C2[C@H]2c3c(cc(C)c(OC)c3O)C[C@@H]([C@@H]1O)N2C)OCO4 (stereo partly drawn) [Compound 175]", "LNCAP TGI", "1.12E-09"),
    ("C=COC(=O)Oc1c(C)c2c(c3c1[C@H]1SC[C@]4(NCCc5cc(OC(=O)OC(C)(C)C)c(OC)cc54)C(=O)OC[C@@H]3N3C1[C@H]1c4c(cc(C)c(OC)c4O)C[C@@H]([C@@H]3O)N1C)OCO2 (stereo partly drawn) [Compound 176]", "LNCAP TGI", "3.25E-09"),
    ("COc1cc2c(cc1O)CCN[C@]21CS[C@@H]2c3c(OC(=O)C(F)(F)C(F)(F)C(F)(F)F)c(C)c4c(c3[C@H](COC1=O)N1C2[C@H]2c3c(cc(C)c(OC)c3O)C[C@@H]([C@@H]1O)N2C)OCO4 (stereo partly drawn) [Compound 167]", "LNCAP TGI", "3.80E-08"),
    ("COc1cc2c(cc1O)CCN[C@]21CS[C@@H]2c3c(OC(=O)CCCCC4SCC5NC(=O)NC54)c(C)c4c(c3[C@H](COC1=O)N1C2[C@H]2c3c(cc(C)c(OC)c3OC(=O)CCCCC3SCC5NC(=O)NC53)C[C@@H]([C@@H]1O)N2C)OCO4 (stereo partly drawn) [Compound 172]", "LNCAP TGI", "4.31E-08"),
]

Now look at this one.
GET /values?readout=LNCAP TGI&item= COc1cc2c(cc1O)CCN[C@]21CS[C@@H]2c3c(O)c(C)c4c(c3[C@H](COC1=O)N1C2[C@H]2c3c(cc(C)c(OC)c3O)C[C@@H]([C@@H]1O)N2C)OCO4 (stereo partly drawn) [Et-701]
1.56E-09

* * *

# Toxicity Data Skeletal measurements, system: Skeletal
Number only, no unit.

Past entries and their recorded results:
# compound, Toxicity Data Skeletal
measured = [
    ("C=COC(=O)Oc1cc2c(cc1OC)[C@@]1(CS[C@@H]3c4c(OC(C)=O)c(C)c5c(c4[C@H](COC1=O)N1C3[C@H]3c4c(cc(C)c(OC)c4OC(=O)OC=C)C[C@@H]([C@@H]1O)N3C)OCO5)NCC2 (stereo partly drawn) [Compound 92]", "1.21E-08"),
    ("COc1cc2c(cc1O)CCN[C@]21CS[C@@H]2c3c(OC(C)=O)c(C)c4c(c3[C@H](COC1=O)N1C2[C@H]2c3c(cc(C)c(OC)c3OC)C[C@@H]([C@@H]1O)N2C)OCO4 (stereo partly drawn) [Compound 98]", "1.24E-08"),
]

GET /values?readout=Toxicity Data Skeletal&item= CCN1CCc2cc(O)c(OC)cc2[C@@]12CS[C@@H]1c3c(OC(C)=O)c(C)c4c(c3[C@H](COC2=O)N2C1[C@H]1c3c(cc(C)c(OC)c3O)C[C@@H]([C@@H]2O)N1C)OCO4 (stereo partly drawn) [Compound 94]
1.44E-09

* * *

# System: MEL-28
# assay-summary: Inhibition of cell growth by counting cells, MEL-28
# Type: cell-based, human
# condition-label: Homo sapiens, SK-MEL-28, 72 h; three days of incubation; read-out: IC50 (molar) MEL-28
Label t when IC50 is strictly below 1 nM; otherwise label f.

Please review the following examples before continuing.
# compound, group-label
measured = [
    ("C=CCOc1cc2c(cc1OC)[C@@]1(CS[C@@H]3c4c(OC(C)=O)c(C)c5c(c4[C@H](COC1=O)N1C3[C@H]3c4c(cc(C)c(OC)c4O)C[C@@H]([C@@H]1C#N)N3C)OCO5)NCC2 (stereo partly drawn)", "f"),
    ("COc1cc2c(cc1OC(=O)OC(C)(C)C)CCN[C@]21CS[C@@H]2c3c(OC(C)=O)c(C)c4c(c3[C@H](COC1=O)N1C2[C@H]2c3c(cc(C)c(OC)c3O)C[C@@H]([C@@H]1O)N2C)OCO4 (stereo partly drawn)", "t"),
    ("COc1cc2c(cc1OC(=O)OC(C)(C)C)CCN[C@]21CS[C@@H]2c3c(OC(C)=O)c(C)c4c(c3[C@H](COC1=O)N1C2[C@H]2c3c(cc(C)c(OC)c3OC(=O)OC(C)(C)C)C[C@@H]([C@@H]1O)N2C)OCO4 (stereo partly drawn)", "t"),
    ("COc1cc2c(cc1OC(=O)OC(C)(C)C)CCN[C@]21CS[C@@H]2c3c(OC(=O)/C=C/c4ccccc4)c(C)c4c(c3[C@H](COC1=O)N1C2[C@H]2c3c(cc(C)c(OC)c3O)C[C@@H]([C@@H]1C#N)N2C)OCO4 (stereo partly drawn)", "f"),
    ("CCCC(=O)Oc1cc2c(cc1OC)[C@@]1(CS[C@@H]3c4c(OC(C)=O)c(C)c5c(c4[C@H](COC1=O)N1C3[C@H]3c4c(cc(C)c(OC)c4O)C[C@@H]([C@@H]1C#N)N3C(=O)OC(C)(C)C)OCO5)NCC2 (stereo partly drawn)", "f"),
]

Bench note: check whether COc1cc2c(cc1OC(=O)/C=C/c1ccccc1)CCN[C@]21CS[C@@H]2c3c(OC(C)=O)c(C)c4c(c3[C@H](COC1=O)N1C2[C@H]2c3c(cc(C)c(OC)c3O)C[C@@H]([C@@H]1C#N)N2C)OCO4 (stereo partly drawn) shows IC50 below 1 nM
t

Quick one: C=CCOC(=O)Oc1cc2c(cc1OC)[C@@]1(CS[C@@H]3c4c(OC(C)=O)c(C)c5c(c4[C@H](COC1=O)N1C3[C@H]3c4c(cc(C)c(OC)c4O)C[C@@H]([C@@H]1C#N)N3C(=O)OCC=C)OCO5)NCC2 (stereo partly drawn)
f

Quick one: CCCCCCCCCCCCCCCC(=O)Oc1cc2c(cc1OC)[C@@]1(CS[C@@H]3c4c(OC(C)=O)c(C)c5c(c4[C@H](COC1=O)N1C3[C@H]3c4c(cc(C)c(OC)c4O)C[C@@H]([C@@H]1C#N)N3C(=O)OC(C)(C)C)OCO5)NCC2 (stereo partly drawn)
f

Quick one: CCCN1CCc2cc(O)c(OC)cc2[C@@]12CS[C@@H]1c3c(OC(C)=O)c(C)c4c(c3[C@H](COC2=O)N2C1[C@H]1c3c(cc(C)c(OC)c3O)C[C@@H]([C@@H]2C#N)N1C)OCO4 (stereo partly drawn)
t
